system name: hERG (Homo sapiens, UniProt Q12809)
Sequence (Q12809 whole entry): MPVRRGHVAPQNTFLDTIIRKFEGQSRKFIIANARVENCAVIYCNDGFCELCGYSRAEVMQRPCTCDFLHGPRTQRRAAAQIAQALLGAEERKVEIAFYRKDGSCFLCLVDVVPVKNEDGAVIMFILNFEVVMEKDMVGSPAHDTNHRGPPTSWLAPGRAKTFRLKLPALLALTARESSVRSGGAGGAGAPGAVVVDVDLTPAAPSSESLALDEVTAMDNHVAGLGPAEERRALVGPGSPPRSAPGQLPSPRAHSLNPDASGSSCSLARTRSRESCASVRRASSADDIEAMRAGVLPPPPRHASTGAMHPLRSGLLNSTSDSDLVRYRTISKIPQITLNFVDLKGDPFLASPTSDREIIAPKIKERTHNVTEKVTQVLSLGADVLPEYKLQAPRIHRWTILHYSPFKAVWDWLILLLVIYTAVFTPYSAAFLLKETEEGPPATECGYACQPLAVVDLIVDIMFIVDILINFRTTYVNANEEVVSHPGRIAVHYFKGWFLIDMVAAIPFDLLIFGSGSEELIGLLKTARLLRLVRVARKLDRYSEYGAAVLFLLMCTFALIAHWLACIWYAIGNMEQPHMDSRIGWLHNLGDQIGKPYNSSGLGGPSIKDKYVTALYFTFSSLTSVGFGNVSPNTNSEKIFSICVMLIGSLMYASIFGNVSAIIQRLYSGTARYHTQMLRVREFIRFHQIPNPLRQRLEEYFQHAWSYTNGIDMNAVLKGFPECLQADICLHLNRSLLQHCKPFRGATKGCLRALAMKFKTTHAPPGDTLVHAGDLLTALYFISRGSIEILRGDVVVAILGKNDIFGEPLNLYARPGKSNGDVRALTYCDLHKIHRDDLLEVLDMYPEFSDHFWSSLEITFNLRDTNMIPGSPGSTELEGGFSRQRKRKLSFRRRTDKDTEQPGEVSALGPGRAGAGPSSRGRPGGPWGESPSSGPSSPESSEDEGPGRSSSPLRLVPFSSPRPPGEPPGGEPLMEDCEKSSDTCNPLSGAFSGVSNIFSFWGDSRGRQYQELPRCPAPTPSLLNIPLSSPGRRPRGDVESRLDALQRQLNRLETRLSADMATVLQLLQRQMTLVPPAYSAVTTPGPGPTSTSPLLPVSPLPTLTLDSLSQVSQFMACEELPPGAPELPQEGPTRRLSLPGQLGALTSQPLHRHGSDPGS
experiment: In vitro hERG cardiotoxocity
stated conditions: human, at top test concentration 30 uM, read-out: perc_inhibition_top_conc

compound	inhibition at 30 µM, %
CC(C)C(Nc1ncnc2[nH]c(C(=O)NC3CCN(C)C3)cc12)c1ccc2c(c1)S(=O)(=O)CCC2 (stereo not shown) [ASAP-0011198]	18

====

system name: COX2(h) (Homo sapiens, UniProt P35354)
Construct: purchased Eurofins Cerep (SafetyScreen44), recognised from the panel format
Sequence (P35354 18-604): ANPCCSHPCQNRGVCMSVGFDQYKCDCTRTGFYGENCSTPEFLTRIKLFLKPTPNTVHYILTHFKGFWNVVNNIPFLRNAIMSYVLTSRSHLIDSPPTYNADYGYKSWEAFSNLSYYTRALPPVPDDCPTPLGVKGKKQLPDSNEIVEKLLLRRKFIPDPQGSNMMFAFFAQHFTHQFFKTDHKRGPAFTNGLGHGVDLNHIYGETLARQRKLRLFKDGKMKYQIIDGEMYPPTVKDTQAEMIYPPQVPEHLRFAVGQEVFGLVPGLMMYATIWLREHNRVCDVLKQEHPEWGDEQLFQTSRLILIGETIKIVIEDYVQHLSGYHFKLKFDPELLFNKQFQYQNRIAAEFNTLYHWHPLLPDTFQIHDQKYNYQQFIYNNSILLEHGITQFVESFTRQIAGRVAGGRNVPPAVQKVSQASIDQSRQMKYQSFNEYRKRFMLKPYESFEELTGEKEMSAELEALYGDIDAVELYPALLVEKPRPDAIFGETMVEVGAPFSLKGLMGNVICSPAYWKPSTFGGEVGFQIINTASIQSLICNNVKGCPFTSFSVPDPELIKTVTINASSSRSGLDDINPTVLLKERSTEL
experiment: In vitro CEREP profiling, COX2(h)
Assay type: biochemical
stated conditions: test compound concentration 10 uM; Enzyme and Cell-based assays
experimental endpoint: perc_inhibition: % inhibition of control enzyme activity, COX2(h)

compound	system name	reported
CC(C)[C@H](Nc1ncnc2[nH]c(-c3cnn(C)c3C#N)cc12)c1ccc2c(n1)OCCO2 [ASAP-0010715]	COX2(h) (Homo sapiens, UniProt P35354)	-2%
CNCc1cc(-c2cc3c(N[C@@H](c4ccc5c(c4)S(=O)(=O)CCC5)C(C)C)ncnc3[nH]2)co1 [ASAP-0011176]	COX2(h) (Homo sapiens, UniProt P35354)	24%
CC(C)[C@H](Nc1ncnc2[nH]ccc12)c1ccc2c(c1)S(=O)(=O)CCC2 [ASAP-0008674]	COX2(h) (Homo sapiens, UniProt P35354)	23%
COc1ccc([C@H](Cc2nnn[nH]2)NC(=O)c2ncnc3[nH]ccc23)cc1 [ASAP-0015381]	COX2(h) (Homo sapiens, UniProt P35354)	-1%
Cn1ncc(-c2cc3c(N[C@@H](c4ccc5c(n4)OCCO5)C(C)(C)C)ncnc3[nH]2)c1C#N [ASAP-0011221]	COX2(h) (Homo sapiens, UniProt P35354)	-9%
CC(C)[C@@H](Nc1ncnc2[nH]c(-c3cnn(C)c3C#N)cc12)c1ccc2c(n1)OCCO2 [ASAP-0010716]	COX2(h) (Homo sapiens, UniProt P35354)	-7%
C[C@H](C(=O)O)[C@@H](NC(=O)c1ncnc2[nH]ccc12)c1ccc(Br)cc1 [ASAP-0014722]	COX2(h) (Homo sapiens, UniProt P35354)	7%
